Absolute mRNA transfection efficiency in HEK293 cells listing for selected compounds.
system: HEK293 cells; assay: Preliminary screening as mRNA vectors, EGFP mRNA transfection of HEK293 cells; type: cell-based; details: HEK293 cells, 96-well plates, EGFP mRNA 50 ng per well; percentage of GFP fluorescent cells relative to total number of cells (Hoechst)
Form entry: value (%) — number only.

I am curious: what Absolute mRNA transfection efficiency in HEK293 cells value has been reported for CCCCCCCCCCCCCNc1nc(NCCCCCCCCCCC)nc(NCCN2CCCCC2)n1 ?
0.9

Repeat with CCCCCCCCCNc1nc(NCCCCCCC)nc(NCCN(C)C)n1
0.0

Repeat with CCCCCCCCCCCNc1nc(NCCCCCCCCC)nc(NCCN2CCOCC2)n1
0.3

Repeat with CCCCCCCCCCCCCCCCCCNc1nc(NCCCCCCCC)nc(NCCN2CCCCC2)n1
29.2
